Consider the following compounds and their measured pIC50 readings.
- EXPERIMENTAL TARGET: Stimulator of interferon genes protein (Homo sapiens)
- Sequence (Q86WV6 whole entry, looked up, change not shown): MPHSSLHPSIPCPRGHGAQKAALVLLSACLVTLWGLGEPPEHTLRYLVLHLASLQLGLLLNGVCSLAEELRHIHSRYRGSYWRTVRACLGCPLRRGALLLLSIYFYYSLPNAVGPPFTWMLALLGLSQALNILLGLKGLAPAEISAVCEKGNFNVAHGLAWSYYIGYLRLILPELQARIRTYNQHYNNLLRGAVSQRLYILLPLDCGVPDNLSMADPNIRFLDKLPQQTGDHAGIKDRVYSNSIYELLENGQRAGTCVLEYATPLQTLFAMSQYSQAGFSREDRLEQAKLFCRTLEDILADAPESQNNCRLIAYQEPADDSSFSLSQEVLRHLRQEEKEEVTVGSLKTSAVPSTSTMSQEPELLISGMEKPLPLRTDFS
- EXPERIMENT: Inhibition of cGAMP-induced STING S154 mutant transfected in human THP-1 cells preincubated with compound for 6 hrs followed by cGAMP addition and measured after 18 hrs by QUANTI-Luc based microplate reader analysis
- Type: cell-based
The scale used: pIC50 is minus the common logarithm of the concentration in molar units.

Observe how each entry below is paired with its result.
# COMPOUND, pIC50
rows = [
    ("COc1ccc2c(c1)C(=O)N(c1ccc(C(C)(C)C)c(Cl)c1)C(c1cc3cc(-c4ccc(C(=O)Nc5ccc(O)c(NS(C)(=O)=O)c5)cc4)ccc3o1)C2C(N)=O (stereo not drawn)", 6.59),
    ("CC(C)(C)c1ccc(N2C(=O)c3ccccc3C(C(N)=O)C2c2cc3cc(-c4ccc(C(=O)Nc5ccc(O)c(NS(C)(=O)=O)c5)cc4)ccc3o2)cc1Cl (stereo not drawn)", 6.68),
]

Ask | Would you kindly share the measured pIC50 for COc1ccc2c(c1)C(=O)N(c1ccc(C(C)(C)C)c(F)c1)C(c1cc3cc(-c4ccc(C(=O)Nc5ccc(O)c(NS(C)(=O)=O)c5)cc4)ccc3o1)C2C(N)=O (stereo not drawn) ?
Reply | 6.55

----------
Consider the following molecules and their measured half-life at 10 µM readings.
- EXPERIMENT: Metabolic stability in human liver microsomes assessed as half life at 10 uM in presence of NADPH by LC-MS/MS analysis
- Assay type: ADME, Microsome

Observe how each entry below is paired with its result.
# MOLECULE, half-life at 10 µM
records = [
    ("CC(C)(C)c1ccc(N2C(=O)c3ccccc3C(C(N)=O)C2c2cc3cc(-c4ccc(C(=O)Nc5ccc(O)c(NS(C)(=O)=O)c5)cc4)ccc3o2)cc1Cl (stereo not drawn)", "> 60 min"),
    ("COc1ccc2c(c1)C(=O)N(c1ccc(C(C)(C)C)c(F)c1)C(c1cc3cc(-c4ccc(C(=O)Nc5ccc(O)c(NS(C)(=O)=O)c5)cc4)ccc3o1)C2C(N)=O (stereo not drawn)", "> 60 min"),
]

With those in mind, consider the next molecule.
Ask | Would you kindly share the measured half-life at 10 µM for COc1ccc2c(c1)C(=O)N(c1ccc(C(C)(C)C)c(Cl)c1)C(c1cc3cc(-c4ccc(C(=O)Nc5ccc(O)c(NS(C)(=O)=O)c5)cc4)ccc3o1)C2C(N)=O (stereo not drawn) ?
Reply | > 60 min

----------
- EXPERIMENT: Cytotoxicity against human THP1-Blue ISG cells assessed as inhibition of cell growth at 10 uM incubated for 24 hrs by MTS assay relative to control
- Type: toxicity, cell-based
VALUE TYPE: inhibition at 24 h, 10 µM (%)
// units = %; emit number, no label

Observe how each entry below is paired with its result.
# COMPOUND, VALUE OBSERVED
data = [
    ("CC(C)(C)c1ccc(N2C(=O)c3cc(F)ccc3C(C(N)=O)C2C2=Cc3cc(-c4ccc(C(=O)Nc5ccc(O)c(NS(C)(=O)=O)c5)cc4)ccc3S2(=O)=O)cc1Cl (stereo not given)", 12.7),
    ("CC(=O)Nc1cc(NC(=O)c2ccc(Oc3ccc(C4C(C(N)=O)c5ccccc5C(=O)N4c4ccc(C(C)(C)C)c(Cl)c4)cc3)cc2)ccc1C (stereo not given)", 11.6),
    ("CC(C)(C)c1ccc(N2C(=O)c3ccccc3C(C(N)=O)C2c2ccc(Oc3ccc(C(=O)Nc4cc(F)c(O)c(F)c4)cc3)cc2)cc1Cl (stereo not given)", 44.5),
    ("CC(C)(C)c1ccc(N2C(=O)c3ccccc3C(C(N)=O)C2c2ccc(Nc3ccc(C(=O)Nc4ccc(O)c(NS(C)(=O)=O)c4)cc3)cc2)cc1Cl (stereo not given)", 0),
]

Ask | Would you kindly share the measured inhibition at 24 h, 10 µM for CC(C)(C)c1ccc(N2C(=O)c3cc(F)ccc3C(C(N)=O)C2c2ccc3sc(-c4ccc(C(=O)Nc5ccc(O)c(NS(=O)(=O)C6CC6)c5)cc4)cc3c2)cc1Cl (stereo not given) ?
Reply | 7.7

Ask | Would you kindly share the measured inhibition at 24 h, 10 µM for CC(C)(C)c1ccc(N2C(=O)c3ccccc3C(C(N)=O)C2c2ccc(Oc3ccc(C(=O)Nc4ccc(O)c(NS(C)(=O)=O)c4)cc3)cc2)cc1Cl (stereo not given) ?
Reply | 33.8

Ask | Would you kindly share the measured inhibition at 24 h, 10 µM for CC(C)(C)c1ccc(N2C(=O)c3ccccc3C(C(=O)O)C2c2cc3cc(-c4ccc(C(=O)Nc5ccc(O)c(NS(C)(=O)=O)c5)cc4)ccc3s2)cc1Cl (stereo not given) ?
Reply | 0

Ask | Would you kindly share the measured inhibition at 24 h, 10 µM for CS(=O)(=O)Nc1cc(NC(=O)c2ccc(-c3ccc4oc(C5C(C(N)=O)c6ccccc6C(=O)N5c5ccc(C6CC6)cc5)cc4c3)cc2)ccc1O (stereo not given) ?
Reply | 25.6

Ask | Would you kindly share the measured inhibition at 24 h, 10 µM for CC(C)(C)c1ccc(N2C(=O)c3ccccc3C(C(N)=O)C2c2ccc(Oc3ccc(C(=O)Nc4ccc(CO)c(NS(C)(=O)=O)c4)cc3)cc2)cc1Cl (stereo not given) ?
Reply | 0

Ask | Would you kindly share the measured inhibition at 24 h, 10 µM for CC(C)(C)c1ccc(N2C(=O)c3cc(F)ccc3C(C(N)=O)C2c2ccc3sc(-c4ccc(C(=O)Nc5ccc(O)c(C(N)=O)c5)cc4)cc3c2)cc1Cl (stereo not given) ?
Reply | 14.7

Ask | Would you kindly share the measured inhibition at 24 h, 10 µM for CC(C)(C)c1ccc(N2C(=O)c3ccccc3C(C(N)=O)C2c2ccc3c(c2)C=C(c2ccc(C(=O)Nc4ccc(O)c(NS(C)(=O)=O)c4)cc2)S3(=O)=O)cc1Cl (stereo not given) ?
Reply | 36.1

Ask | Would you kindly share the measured inhibition at 24 h, 10 µM for CC(C)(C)c1ccc(N2C(=O)c3ccccc3C(C(N)=O)C2c2ccc3sc(-c4ccc(C(=O)Nc5ccc(O)c(NS(C)(=O)=O)c5)cc4)cc3c2)cc1Cl (stereo not given) ?
Reply | 3.9

Ask | Would you kindly share the measured inhibition at 24 h, 10 µM for CC(C)(C)c1ccc(N2C(=O)c3ccccc3C(C(N)=O)C2c2cc3cc(-c4ccc(C(=O)Nc5ccc(O)c(NS(C)(=O)=O)c5)cn4)ccc3o2)cc1Cl (stereo not given) ?
Reply | 45.7

Ask | Would you kindly share the measured inhibition at 24 h, 10 µM for CCC(=O)Nc1cc(NC(=O)c2ccc(Oc3ccc(C4C(C(N)=O)c5ccccc5C(=O)N4c4ccc(C(C)(C)C)c(Cl)c4)cc3)cc2)ccc1O (stereo not given) ?
Reply | 7.5

Ask | Would you kindly share the measured inhibition at 24 h, 10 µM for CCS(=O)(=O)Nc1cc(NC(=O)c2ccc(-c3ccc4oc(C5C(C(N)=O)c6ccccc6C(=O)N5c5ccc(C(C)(C)C)c(Cl)c5)cc4c3)cc2)ccc1O (stereo not given) ?
Reply | 11.1

----------
- EXPERIMENT: Cytotoxicity against human THP1-Blue ISG cells assessed as inhibition of cell growth at 10 uM incubated for 24 hrs by MTS assay relative to control
- Type: toxicity, cell-based
inhibition at 24 h, 10 µM below 30% gives No; inhibition at 24 h, 10 µM at or above it gives Yes.

// below: answered compounds
# COMPOUND, LABEL VALUE
records = [
    ("COc1ccc2c(c1)C(=O)N(c1ccc(C(C)(C)C)c(Cl)c1)C(c1cc3cc(-c4ccc(C(=O)Nc5ccc(O)c(NS(C)(=O)=O)c5)cc4)ccc3o1)C2C(N)=O (stereo not given)", "Yes"),
    ("CC(C)(C)c1ccc(N2C(=O)c3ccccc3C(C(N)=O)C2c2cc3cc(-c4ccc(C(=O)Nc5cc(O)cc(NS(C)(=O)=O)c5)cc4)ccc3o2)cc1Cl (stereo not given)", "Yes"),
    ("CN1C(=O)c2ccccc2C(C(N)=O)C1c1cc2cc(-c3ccc(C(=O)Nc4ccc(O)c(NS(C)(=O)=O)c4)cc3)ccc2o1 (stereo not given)", "Yes"),
    ("CC(C)(C)c1ccc(N2C(=O)c3ccccc3C(C(N)=O)C2c2cc3cc(-c4ncc(C(=O)Nc5ccc(O)c(NS(C)(=O)=O)c5)cn4)ccc3o2)cc1Cl (stereo not given)", "No"),
    ("CC(C)(C)c1ccc(N2C(=O)c3ccccc3C(C(N)=O)C2c2ccc(Oc3ccc(C(=O)Nc4ccc(NS(C)(=O)=O)cc4)cc3)cc2)cc1Cl (stereo not given)", "No"),
]

Ask | Test whether the compound CC(C)(C)c1ccc(N2C(=O)c3cc(F)ccc3C(C(N)=O)C2c2cc3cc(-c4ccc(C(=O)Nc5ccc(O)c(NS(C)(=O)=O)c5)cc4)ccc3s2)cc1Cl (stereo not given) records inhibition at 24 h, 10 µM of 30% or higher.
Reply | No

Ask | Test whether the compound CC(C)(C)c1ccc(N2C(=O)c3ccccc3C(C(N)=O)C2c2cc3cc(-c4ccc(C(=O)Nc5ccc(O)c(NS(C)(=O)=O)c5)cc4)ccc3o2)cc1Cl (stereo not given) records inhibition at 24 h, 10 µM of 30% or higher.
Reply | Yes
